Where these numbers come from: patent US20230035798A1

The following binders are listed with their measured IC50 values.
target under test: T1, human LIGHT (TNFSF14), full length, membrane-bound (214E allele) (human, UniProt O43557 1-240)
T1 construct: also called membrane LIGHT; human membrane LIGHT
T1 sequence (O43557 whole entry K214E): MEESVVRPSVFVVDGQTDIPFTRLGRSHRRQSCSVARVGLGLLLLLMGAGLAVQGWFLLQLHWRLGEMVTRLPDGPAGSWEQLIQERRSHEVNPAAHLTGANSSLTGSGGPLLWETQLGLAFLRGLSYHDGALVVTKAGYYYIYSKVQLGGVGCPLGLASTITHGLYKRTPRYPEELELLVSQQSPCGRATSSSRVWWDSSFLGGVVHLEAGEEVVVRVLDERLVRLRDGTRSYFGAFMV
protocol summary: competition with biotin-HVEM:Fc, HEK293FF LIGHT cells, flow cytometry

>  <binder>
3C10 (antibody, human IgG4, V domains shown, chimeric human IgG4 (S-to-P, L-to-E at 248), human CL; also called Parental 3C10) VH: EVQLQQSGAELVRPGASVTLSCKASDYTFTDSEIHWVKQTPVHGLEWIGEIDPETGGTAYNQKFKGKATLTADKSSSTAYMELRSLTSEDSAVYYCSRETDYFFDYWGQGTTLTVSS VL: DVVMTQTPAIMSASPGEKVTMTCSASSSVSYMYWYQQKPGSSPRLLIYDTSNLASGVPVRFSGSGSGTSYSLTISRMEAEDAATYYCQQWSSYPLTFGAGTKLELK

>  <IC50, nM>
2.1

$$$$
>  <binder>
2E08 (antibody, human IgG4, V domains shown, chimeric human IgG4 (S-to-P, L-to-E at 248), human CL; also called Parental 2E08) VH: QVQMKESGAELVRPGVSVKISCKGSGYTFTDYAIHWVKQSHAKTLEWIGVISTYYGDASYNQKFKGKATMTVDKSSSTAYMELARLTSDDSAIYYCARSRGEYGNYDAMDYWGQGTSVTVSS VL: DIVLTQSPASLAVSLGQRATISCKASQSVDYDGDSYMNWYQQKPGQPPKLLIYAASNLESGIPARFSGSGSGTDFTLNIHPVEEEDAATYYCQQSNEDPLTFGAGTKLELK

>  <IC50, nM>
23.8

$$$$
>  <binder>
3B04 (antibody, human IgG4, V domains shown, chimeric: mouse variable domains on human IgG4 HC (S-to-P and L-to-E at 248) and human CL; also called Parental 3B04; 3B04 chimeric) VH: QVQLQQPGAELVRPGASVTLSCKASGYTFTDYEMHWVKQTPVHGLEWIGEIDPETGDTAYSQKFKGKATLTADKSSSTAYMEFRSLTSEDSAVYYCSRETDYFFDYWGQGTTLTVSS VL: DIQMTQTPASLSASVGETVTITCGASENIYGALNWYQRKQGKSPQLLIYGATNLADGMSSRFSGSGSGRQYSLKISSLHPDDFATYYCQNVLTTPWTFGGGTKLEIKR

>  <IC50, nM>
1.2

$$$$
